Reference for the values: ChEMBL document CHEMBL4342505

IC50, B-cell lymphoma 6 protein (Homo sapiens, UniProt P41182), per-entry values.
property_measured: IC50 (nM)

compound="CCC(O)Cn1c(=O)n(C)c2ccc(Nc3ccnc(Cl)c3C#N)cc21 (racemic)" test_system="B-cell lymphoma 6 protein (Homo sapiens, UniProt P41182)" property_measured=IC50 recorded_number=5400
compound=C[C@@H]1CN(c2cc(Nc3ccc4c(c3)n(CCC(C)(C)O)c(=O)n4C)c(Cl)cn2)C[C@H](C)O1 test_system="B-cell lymphoma 6 protein (Homo sapiens, UniProt P41182)" property_measured=IC50 recorded_number=930
compound=Cc1nc(C)c(-c2ncc(Cl)c(Nc3ccc4c(c3)n(CCC(C)(C)O)c(=O)n4C)n2)s1 test_system="B-cell lymphoma 6 protein (Homo sapiens, UniProt P41182)" property_measured=IC50 recorded_number=1400
compound=CC[C@H](O)Cn1c(=O)n(C)c2ccc(Nc3ccnc(Cl)c3C#N)cc21 test_system="B-cell lymphoma 6 protein (Homo sapiens, UniProt P41182)" property_measured=IC50 recorded_number=4600
compound=Cn1ccnc1-c1ncc(Cl)c(Nc2ccc3c(c2)n(CCC(C)(C)O)c(=O)n3C)n1 test_system="B-cell lymphoma 6 protein (Homo sapiens, UniProt P41182)" property_measured=IC50 recorded_number=480
compound=CCCCn1c(=O)n(C)c2ccc(Nc3ccnc(Cl)c3C#N)cc21 test_system="B-cell lymphoma 6 protein (Homo sapiens, UniProt P41182)" property_measured=IC50 recorded_number=6600
compound=Cn1c(=O)n(CCC(C)(C)O)c2cc(Nc3ccnc(Cl)c3Cl)ccc21 test_system="B-cell lymphoma 6 protein (Homo sapiens, UniProt P41182)" property_measured=IC50 recorded_number=1400
compound=CN(C)c1ncc(Cl)c(Nc2ccc3c(c2)n(CCC(C)(C)O)c(=O)n3C)n1 test_system="B-cell lymphoma 6 protein (Homo sapiens, UniProt P41182)" property_measured=IC50 recorded_number=1200
compound="CC1CCCN(c2ncc(Cl)c(Nc3ccc4c(c3)n(CCC(C)(C)O)c(=O)n4C)n2)C1 (centres undefined)" test_system="B-cell lymphoma 6 protein (Homo sapiens, UniProt P41182)" property_measured=IC50 recorded_number=640

---

# method: Lipophilicity, log D of compound at pH 7.4
# Assay type: physicochemical
# measurement_context: buffer
property_measured: logD

molecule="CC1CCCN(c2ncc(Cl)c(Nc3ccc4c(c3)n(CCC(C)(C)O)c(=O)n4C)n2)C1 (stereo not given)" property_measured=logD recorded_number=4.2
molecule="Cn1c(=O)n(CCC(C)(C)O)c2cc(Nc3nc(N4CCC(F)(F)C(CO)C4)ncc3Cl)ccc21 (stereo not given)" property_measured=logD recorded_number=2.5
molecule=C[C@@H]1CN(c2ncc(Cl)c(Nc3ccc4c(c3)n(CCC(C)(C)O)c(=O)n4C)n2)C[C@H](C)C1(F)F property_measured=logD recorded_number=4.3
molecule="CC1CN(c2ncc(Cl)c(Nc3ccc4c(c3)n(CCC(C)(C)O)c(=O)n4C)n2)CCC1(F)F (stereo not given)" property_measured=logD recorded_number=3.9
molecule="Cn1c(=O)n(CCC(C)(C)O)c2cc(Nc3nc(N4CCCC(C(F)(F)F)C4)ncc3Cl)ccc21 (stereo not given)" property_measured=logD recorded_number=4.2

---

# method: Plasma concentration in SCID mouse
# Assay type: ADME, cell-free
property_measured: concentration

smiles_string=C[C@@H]1CN(c2ncc(Cl)c(Nc3ccc4c(c3)n(CCC(C)(C)O)c(=O)n4C)n2)C[C@H](C)C1(F)F property_measured=concentration result="1500 nM"

---

# method: Kinetic solubility in HEPES buffer containing 5% DMSO at pH 8 incubated for 20 hrs by NMR analysis
# Assay type: physicochemical
# measurement_context: read-out: Kinetic_solubility
Recorded measurements of solubility kinetic at 20 h, one per entry
property_measured: solubility kinetic at 20 h (µM)

smiles_string=Cc1ccnn1-c1ncc(Cl)c(Nc2ccc3c(c2)n(CCC(C)(C)O)c(=O)n3C)n1 comparison_sign== recorded_number=420
smiles_string=Cn1c(=O)n(CCC(C)(C)O)c2cc(Nc3nc(-n4cccn4)ncc3Cl)ccc21 comparison_sign== recorded_number=146
smiles_string=Cn1c(=O)n(CCC(C)(C)O)c2cc(Nc3nc(N4CCCCC4)ncc3Cl)ccc21 comparison_sign== recorded_number=70
smiles_string=C[C@@H]1CN(c2ncc(Cl)c(Nc3ccc4c(c3)n(CCC(C)(C)O)c(=O)n4C)n2)C[C@H](C)N1C comparison_sign== recorded_number=343
smiles_string=C[C@@H]1C[C@H](C)CN(c2ncc(Cl)c(Nc3ccc4c(c3)n(CCC(C)(C)O)c(=O)n4C)n2)C1 comparison_sign=< recorded_number=30
smiles_string=Cn1c(=O)n(CCC(C)(C)O)c2cc(Nc3ccncc3Cl)ccc21 comparison_sign== recorded_number=526
smiles_string=CCCCn1c(=O)n(C)c2ccc(Nc3ccnc(Cl)c3C#N)cc21 comparison_sign== recorded_number=53
smiles_string=Cc1ccn(-c2ncc(Cl)c(Nc3ccc4c(c3)n(CCC(C)(C)O)c(=O)n4C)n2)n1 comparison_sign== recorded_number=253

---

# method: Lipophilicity, log D of compound at pH 7.4
# Assay type: physicochemical
# measurement_context: buffer
property_measured: logD

compound="Cn1c(=O)n(CCC(C)(C)O)c2cc(Nc3nc(N4CCCC(CO)C4)ncc3Cl)ccc21 (centres undefined)" property_measured=logD recorded_number=2.1
compound="COCC1CN(c2ncc(Cl)c(Nc3ccc4c(c3)n(CCC(C)(C)O)c(=O)n4C)n2)CCC1(F)F (centres undefined)" property_measured=logD recorded_number=3.5
compound=C[C@@H]1C[C@H](C)CN(c2ncc(Cl)c(Nc3ccc4c(c3)n(CCC(C)(C)O)c(=O)n4C)n2)C1 property_measured=logD recorded_number=4.7
compound=Cn1c(=O)n(CCC(C)(C)O)c2cc(Nc3nc(N4CCC(F)(F)CC4)ncc3Cl)ccc21 property_measured=logD recorded_number=3.4

---

# method: Drug level in SCID mouse blood
# Type: ADME, tissue-based
# measurement_context: read-out: Ct
property_measured: concentration

smiles_string=C[C@@H]1CN(c2ncc(Cl)c(Nc3ccc4c(c3)n(CCC(C)(C)O)c(=O)n4C)n2)C[C@H](C)C1(F)F property_measured=concentration result="2800 nM"

---

# method: AUC (0 to 10 hrs) in SCID mouse at 15 mg/kg, po measured upto 10 hrs by LC/MS-MS analysis
# Assay type: ADME, organism-based
# Parameters: dose 15 mg/kg, time < 10 hr, route oral
# measurement_context: in vivo
property_measured: AUC(0-t) at 10 h

smiles_string=C[C@@H]1CN(c2ncc(Cl)c(Nc3ccc4c(c3)n(CCC(C)(C)O)c(=O)n4C)n2)C[C@H](C)C1(F)F property_measured="AUC(0-t) at 10 h" result="48.2 to 49.3 µM·h"

---

pIC50, B-cell lymphoma 6 protein (Homo sapiens), per-entry values.
pIC50: −log10 of the molar value.
property_measured: pIC50

molecule=C[C@@H]1CN(c2ncc(Cl)c(Nc3ccc4c(c3)n(CCC(C)(C)O)c(=O)n4C)n2)C[C@H](C)N1C recorded_number=6.72
molecule=CC[C@@H](O)Cn1c(=O)n(C)c2ccc(Nc3ccnc(Cl)c3C#N)cc21 recorded_number=5.35
molecule=Cc1cc(C)n(-c2cc(Nc3ccc4c(c3)n(CCC(C)(C)O)c(=O)n4C)c(Cl)cn2)n1 recorded_number=6.10
molecule=Cc1ccnn1-c1ncc(Cl)c(Nc2ccc3c(c2)n(CCC(C)(C)O)c(=O)n3C)n1 recorded_number=6.37
molecule=CSc1ncc(Cl)c(Nc2ccc3c(c2)n(CCC(C)(C)O)c(=O)n3C)n1 recorded_number=6.17
molecule=Cn1c(=O)n(CCC(C)(C)O)c2cc(Nc3nc(N4CCC(F)(F)CC4)ncc3Cl)ccc21 recorded_number=6.51
molecule="Cn1c(=O)n(CCC(C)(C)O)c2cc(Nc3nc(N4CCCC(C(F)(F)F)C4)ncc3Cl)ccc21 (configuration not stated)" recorded_number=6.40
molecule="CC1CN(c2ncc(Cl)c(Nc3ccc4c(c3)n(CCC(C)(C)O)c(=O)n4C)n2)CCC1(F)F (configuration not stated)" recorded_number=6.48
molecule=C[C@@H]1C[C@H](C)CN(c2cc(Nc3ccc4c(c3)n(CCC(C)(C)O)c(=O)n4C)c(Cl)cn2)C1 recorded_number=5.46
molecule=C[C@@H]1CN(c2ncc(Cl)c(Nc3ccc4c(c3)n(CCC(C)(C)O)c(=O)n4C)n2)C[C@H](C)O1 recorded_number=6.82
molecule=Cn1c(=O)n(CCC(C)(C)O)c2cc(Nc3nc(N4CCC(C(F)(F)F)CC4)ncc3Cl)ccc21 recorded_number=6.02
molecule=Cn1c(=O)n(CCC(C)(C)O)c2cc(Nc3ccncc3Cl)ccc21 recorded_number=6.00
molecule=Cc1cc(C)n(-c2ncc(Cl)c(Nc3ccc4c(c3)n(CCC(C)(C)O)c(=O)n4C)n2)n1 recorded_number=6.59
molecule=Cn1c(=O)n(CCC(C)(C)O)c2cc(Nc3nc(N4CCCCC4)ncc3Cl)ccc21 recorded_number=6.00
molecule=Cn1c(=O)n(CCC(C)(C)O)c2cc(Nc3ncnc(Cl)c3Cl)ccc21 recorded_number=5.68
molecule=Cn1c(=O)n(CCC(C)(C)O)c2cc(Nc3nc(N4CC5CCC(C4)C5(F)F)ncc3Cl)ccc21 recorded_number=6.15
molecule=Cc1ccn(-c2ncc(Cl)c(Nc3ccc4c(c3)n(CCC(C)(C)O)c(=O)n4C)n2)n1 recorded_number=6.40
molecule=Cn1c(=O)n(CCC(C)(C)O)c2cc(Nc3c(Cl)cncc3Cl)ccc21 recorded_number=4.43
molecule="Cn1c(=O)n(CCC(C)(C)O)c2cc(Nc3nc(N4CCCC(CO)C4)ncc3Cl)ccc21 (configuration not stated)" recorded_number=6.89
molecule=Cn1c(=O)n(CCC(C)(C)O)c2cc(Nc3nc(-n4cccn4)ncc3Cl)ccc21 recorded_number=6.15
molecule="Cn1c(=O)n(CCC(C)(C)O)c2cc(Nc3nc(N4CCCC(C#N)C4)ncc3Cl)ccc21 (configuration not stated)" recorded_number=6.41
molecule=Cn1c(=O)n(CCC(C)(C)O)c2cc(Nc3nc(N4CCOCC4)ncc3Cl)ccc21 recorded_number=6.57
